Assay Explanation: Stability of compounds in mouse blood plasma
Type: in vitro ADME
Numbered stars: 1 amine (or outer) side, 2 acyl side, 3 side chain; on linkers, the order of the positions; unused ones are H or OH. Square brackets hold non-standard residues; d marks the D form. Peptide text beside a SMILES is read from it. * marks the point of attachment. ξ: configuration not given here. Gly(1-amidinopiperidin-4-yl) = N=C(N)N1CCC([C@H](N)C(=O)O)CC1; X1 = CC(C)c1oc([C@H](CO)N[*:1])nc1C(=O)[*:2]; Pro(3R-Ph) = O=C(O)[C@H]1NCC[C@@H]1c1ccccc1; Met(O) = CS(=O)CC[C@H](N)C(=O)O; Tic = O=C(O)[C@@H]1Cc2ccccc2CN1; Cha = N[C@@H](CC1CCCCC1)C(=O)O; NHPhenethyl = c1ccc(CCN*)cc1; NMe(benzyl) = CN(Cc1ccccc1)*; ξDisc = O=C(O)C1NCc2ccccc21; Nle = CCCC[C@H](N)C(=O)O; X2 = OCCOCCN(Cc1ccccc1)*
Hi! Could you tag entries with Stability (Arbitrary units) Mouse 24 h below 70 Arbitrary units as TRUE, and those at or above as FALSE? Much appreciated.

Reference set, count: 5
Decide: Stability (Arbitrary units) Mouse 24 h of CCCC[C@H](NC(=O)C1c2ccccc2CN1C(=O)[C@H](CCCNC(=N)N)NC(=O)[C@H](CC1CCCCC1)NC(C)=O)C(=O)N(C)Cc1ccccc1 (stereo partly drawn) [Compound P72-1, Ac-Cha-Arg-Disc-Nle-N(Me)Bn] (Ac-[Cha]R[ξDisc][Nle]-{NMe(benzyl)}) strictly below 70 Arbitrary units?
FALSE

# iterate: CC(=O)N[C@@H](CC1CCCCC1)C(=O)N[C@H](C(=O)N1Cc2ccccc2C[C@H]1C(=O)N[C@@H](CC[S+](C)[O-])C(=O)N1CC[C@H](c2ccccc2)[C@H]1C(=O)N[C@@H](CO)c1nc(C(=O)N(C)C)c(C(C)C)o1)C1CCN(C(=N)N)CC1 (stereo partly drawn) [Compound P47] (Ac-[Cha][Gly(1-amidinopiperidin-4-yl)][Tic][Met(O)][Pro(3R-Ph)][X1]-NMe2)
FALSE

What would you report for CCCC[C@H](NC(=O)[C@@H]1Cc2ccccc2CN1C(=O)[C@@H](NC(=O)[C@H](CC1CCCCC1)NC(C)=O)C1CCN(C(=N)N)CC1)C(=O)N(C)Cc1ccccc1 [Compound P74, Ac-Cha-Gpg-Tic-Nle-N(Me)Bn] (Ac-[Cha][Gly(1-amidinopiperidin-4-yl)][Tic][Nle]-{NMe(benzyl)}) ?
FALSE

Same again, this time with CCCC[C@H](NC(=O)[C@@H]1Cc2ccccc2CN1C(=O)[C@H](CCCNC(=N)N)NC(=O)[C@H](CC1CCCCC1)NC(C)=O)C(=O)NCCc1ccccc1 [Compound P82, Ac-Cha-Arg-Tic-Nle-N(H)CH2CH2Ph] (Ac-[Cha]R[Tic][Nle]-NHPhenethyl)
TRUE

Note, next up: CSCC[C@H](NC(=O)[C@@H]1Cc2ccccc2CN1C(=O)[C@@H](NC(=O)[C@H](CC1CCCCC1)NC(C)=O)C1CCN(C(=N)N)CC1)C(=O)N(CCOCCO)Cc1ccccc1 [Compound P102, Ac-Cha-Gpg-Tic-Met-N(Bn)CH2CH2OCH2CH2OH] (Ac-[Cha][Gly(1-amidinopiperidin-4-yl)][Tic]M-X2)
FALSE

Turning now to a further record.
Is 70 Arbitrary units strictly greater than the compound's reported Stability (Arbitrary units) Mouse 24 h? compound: CCCC[C@H](NC(=O)C1c2ccccc2CN1C(=O)[C@@H](NC(=O)[C@H](CC1CCCCC1)NC(C)=O)C1CCN(C(=N)N)CC1)C(=O)N(C)Cc1ccccc1 (single isomer, unassigned) [Compound P78-1]
TRUE
